Below, each entry is listed alongside its reported composite z-score.
experiment: small-molecule microarray binders of probe aNog, primary screen, biochemical, biotinylated probe, 635/667 nm fluorescence (AID 1115); details: higher = more signal;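 also: probe is biotinylated aNog protein used at 0.15 µg/mL for 1 h at 4 C; z-score combines 667 nm fluorescence of each spot with its signal to noise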
readout type: composite z-score

* O=C1OC[C@@H](c2ccccc2)n2cc(/C=C/c3ccccc3)cc21 | -0.367
* COC(=O)[C@@]1(Cc2ccc(F)cc2)[C@H]2c3cc(C(=O)N4CCCC4)n(C[C@H](O)CO)c3C[C@H]2CN1C(=O)c1ccccc1 | 2.28
* C=CCNC(=O)[C@H]1[C@@H]2C(=O)O[C@@H](c3ccccc3)[C@@H](c3ccccc3)N2[C@@H](c2ccc(OCCO)cc2)[C@]12C(=O)N(C(=O)OCCOC)c1ccc(C#CCNC(N)=O)cc12 | 0.49
* COc1ccc(C(O)C2C=CC3C(=O)N(c4ccccc4)C(=O)C3N2Nc2ccccc2F)c2ccccc12 (centres undefined) | 1.26
* O=C(NCC(F)(F)F)[C@@H]1c2ccccc2C(=O)N(Cc2cc(C(F)(F)F)cc(C(F)(F)F)c2)[C@H]1c1ccc(CO)cc1 | -0.103
* CC(C)C[C@@H]1NC(=O)[C@@H]2C[C@H](C(=O)NCCCCCNC(=O)CS)[C@H](c3ccc(O)cc3)N2C1=O | -0.12
* C=CC[C@]1(C(=O)NCC(O)CO)N=C(c2ccc(OCCCO)cc2)O[C@H]1c1ccccc1CN=[N+]=[N-] (some centres undefined) | -0.516
* CCCCCCCCCCC(O)C1C=CC2C(=O)N(C)C(=O)C2N1Nc1ccccc1 (centres undefined) | 0.101
* COC(=O)Cn1c(C(=O)N(C)C)cc2c1C[C@H]1CN(C(=O)c3ccccc3)[C@@](Cc3ccccc3)(C(=O)OC)[C@@H]21 | -0.354
* CCCCN1CC=CC23O[C@@H]4/C=C\CCCOC(=O)C4[C@H]2C(=O)N(CCCCCCO)[C@@H]3C1=O (some centres undefined) | -0.346
* C=C(COC)/C(=C/C[C@@H](OC(=O)c1ccncc1)c1ccccc1OCCO)c1cnc2ccccc2c1 | 0.361
* CO[C@H]1O[C@H](CO)[C@@H](OC(=O)Nc2ccccc2)[C@@H]2OC(=O)[C@@H](Cc3ccccc3)C/C=C/C[C@H](Cc3ccccc3)C(=O)O[C@@H]12 | -0.125
* Cc1cccc([C@H]2C[C@H]3C(Br)=C[C@@]2(CO)C(=O)[C@]32CO2)c1 | 0.247
* CC[C@@H](O[Si](C#C[Si](C(C)C)(C(C)C)C(C)C)(C(C)C)C(C)C)c1cn([C@H](CO)Cc2ccccc2)nn1 | 0.184
* CC(C)N1CC=CC23O[C@@H]4/C=C\CCCOC(=O)C4[C@H]2C(=O)N(C(C)CO)[C@@H]3C1=O (some centres undefined) | -0.356
* O=C1OCCC/C=C\[C@H]2OC34C=CCN(Cc5ccccc5)C(=O)[C@H]3N(CCO)C(=O)[C@@H]4C12 (some centres undefined) | -0.33
* COc1ccc(C(O)C2C=CC3C(=O)N(C)C(=O)C3N2Nc2ccccc2)cc1 (centres undefined) | 1.76
* C=CCNC(=O)[C@H]1[C@@H]2C(=O)O[C@@H](c3ccccc3)[C@@H](c3ccccc3)N2[C@@H](c2ccc(OCCO)cc2)[C@]12C(=O)Nc1ccc(C#Cc3ccc(OC)cc3)cc12 | -0.403
* COc1c(C)cc(-c2cc3c(c(CCc4ccccc4)n2)[Si](C(C)C)(C(C)C)O[C@H]3c2ccccc2)cc1C | 0.0225
* O=C1O[C@H](c2ccccc2)[C@H](c2ccccc2)N2[C@H]1[C@@H](C(=O)Nc1nc3ccccc3s1)[C@]1(C(=O)Nc3ccccc31)[C@H]2c1ccccc1OCCO | -0.501
* C=CC[C@]12N=C(c3ccc(OCCCO)cc3)O[C@H]1c1ccccc1N(CCC)C2=O | 0.993
* C=CCN1C(=O)[C@@]2(O[C@@H](CCO)[C@H]([Si](C)(C)c3ccc(OC)cc3)[C@H]2C)c2cc(N3CCCCC3=O)ccc21 | 0.197
* COC(=O)[C@H]1N=C(c2ccc(OCCCO)cc2)O[C@H]1c1ccccc1N=[N+]=[N-] | 1.29
* COc1cccc(C)c1NC(=O)O[C@H]1[C@H](OC(=O)Nc2ccccc2)[C@@H](OC(=O)Nc2ccccc2)[C@@H](OC)O[C@@H]1CO | 0.0023
